# Tested on: L-02 (normal human hepatocytes)
# Experiment Summary: Cytotoxicity assay, SRB method, L-02
# Type: cell-based
# Measurement Context: Homo sapiens, L02; L-02 cells, SRB method
Measured Endpoint: IC50

Below, 3 compounds whose answers are already recorded.
{"Compound": "Cc1cc(O)c(CC[C@@H](C)C(=O)O)c2scnc12", "Target Under Test": "L-02 (normal human hepatocytes)", "Reported Result": "> 30 µM"}
{"Compound": "CC(c1nc2ccccc2c(=O)[nH]1)N1CCCC1=O (stereo not shown)", "Target Under Test": "L-02 (normal human hepatocytes)", "Reported Result": "> 30 µM"}
{"Compound": "COc1cccc2c1C(=O)c1c(O)c3c(c(O)c1C2=O)C[C@@](O)(C(=O)CO)C[C@@H]3O[C@H]1C[C@H](N)[C@H](O)[C@H](C)O1 [Doxorubicin, reference compound]", "Target Under Test": "L-02 (normal human hepatocytes)", "Reported Result": "< 1 µM"}

input: Endpoint output: IC50 of Cc1c(O)cc(CCC(C)C(=O)O)c2ncsc12 (stereo not shown) . Value?
output: > 30 µM

----------
# Tested on: MDA-MB-231 (human breast cancer)
# Experiment Summary: Cytotoxicity assay, SRB method, MDA-MB-231
# Type: cell-based
# Measurement Context: Homo sapiens; MDA-MB-231 cells, SRB method
So I've got a bunch of compounds here, and I need their IC50 values.

{"Compound": "Cc1cc(O)c(CC[C@H](C)C(=O)O)c2scnc12", "Target Under Test": "MDA-MB-231 (human breast cancer)", "Reported Result": "> 30 µM"}
{"Compound": "COc1cccc2c1C(=O)c1c(O)c3c(c(O)c1C2=O)C[C@@](O)(C(=O)CO)C[C@@H]3O[C@H]1C[C@H](N)[C@H](O)[C@H](C)O1 [Doxorubicin, reference compound]", "Target Under Test": "MDA-MB-231 (human breast cancer)", "Reported Result": "< 1 µM"}

# evaluate next
input: Quick check: IC50 of CC1C(CCc2nc3ccccc3c(=O)[nH]2)C2CC(=O)C1(C)C(=O)C2(C)O (stereo not drawn) ?
output: > 30 µM

----------
# System: K562 (human leukemia) cell line
# Experiment Summary: Cytotoxicity assay, MTT method, K562
# Assay type: cell-based
# Measurement Context: Homo sapiens; K562 cell line, MTT method
Could you please report measured IC50 for the items listed next?

// below: answered compounds
{"Compound": "Cc1cc(O)c(CC[C@H](C)C(=O)O)c2scnc12", "Target Under Test": "K562 (human leukemia) cell line", "IC50": "> 30 µM"}
{"Compound": "Cc1c(O)cc(CCC(C)C(=O)O)c2ncsc12 (stereo not shown)", "Target Under Test": "K562 (human leukemia) cell line", "IC50": "> 30 µM"}
{"Compound": "Cc1cc(O)c(CC[C@@H](C)C(=O)O)c2scnc12", "Target Under Test": "K562 (human leukemia) cell line", "IC50": "> 30 µM"}
{"Compound": "CC(c1nc2ccccc2c(=O)[nH]1)N1CCCC1=O (stereo not shown)", "Target Under Test": "K562 (human leukemia) cell line", "IC50": "> 30 µM"}
{"Compound": "COc1cccc2c1C(=O)c1c(O)c3c(c(O)c1C2=O)C[C@@](O)(C(=O)CO)C[C@@H]3O[C@H]1C[C@H](N)[C@H](O)[C@H](C)O1 [Doxorubicin, reference compound]", "Target Under Test": "K562 (human leukemia) cell line", "IC50": "< 1 µM"}

Report IC50 for every entry below.
1. C/C=C/C=C/C(=O)c1cc(C)c(C(=O)O)c(C)c1O
2. CC1C(CCc2nc3ccccc3c(=O)[nH]2)C2CC(=O)C1(C)C(=O)C2(C)O (stereo not shown)

output:
1. 15 µM
2. > 30 µM
